biological target: T1, recombinant human CD40-Fc (human, UniProt P25942 21-193); assay: ELISA on coated recombinant human CD40-Fc, detection anti-human IgG F(ab')2-HRP, OD 450-650
T1 construct: also called soluble recombinant human CD40/Fc chimera from R&D Systems; not shown: The antibody Fc domain of the R&D Systems chimera and any linker to it
T1 sequence (P25942 21-193 limits assumed, form in doubt): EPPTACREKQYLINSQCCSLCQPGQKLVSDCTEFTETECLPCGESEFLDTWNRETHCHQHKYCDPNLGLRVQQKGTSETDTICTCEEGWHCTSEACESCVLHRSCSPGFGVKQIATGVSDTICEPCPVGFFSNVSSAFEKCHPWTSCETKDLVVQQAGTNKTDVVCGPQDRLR
PARAMETER: EC50 (read off the curve)

Which EC50 (read off the curve) is reported for this binder? F(ab')2 fragment of antibody 3G5 (other, F(ab')2 version of the IgG2 antibody, lacking the Fc domain; also called 3G5 F(ab')2) VH: QVQLVESGGGVVQPGKSLRLSCAASGFTFSSNGIHWVRQAPGKGLEWVAVIWSDGSNKFYADSVKGRFTISRDNSKNTLYLQMNSLRAEDTAVYYCARASGSGSYYNFFDYWGQGTLVTVSS VL: EIVMTQSPATLSVSPGERATLSCRASQSVRSNLAWYQQKPGQAPRLLIYGASTRATGIPARFSGSGSGTEFTLTINSLQSEDFAVYYCQQHNKWITFGQGTRLEIK
~0.3 nM

Next:
Which EC50 (read off the curve) is reported for this binder? anti-CD40 human monoclonal antibody 3G5 (antibody, human IgG2, V domains shown, Human IgG2) VH: QVQLVESGGGVVQPGKSLRLSCAASGFTFSSNGIHWVRQAPGKGLEWVAVIWSDGSNKFYADSVKGRFTISRDNSKNTLYLQMNSLRAEDTAVYYCARASGSGSYYNFFDYWGQGTLVTVSS VL: EIVMTQSPATLSVSPGERATLSCRASQSVRSNLAWYQQKPGQAPRLLIYGASTRATGIPARFSGSGSGTEFTLTINSLQSEDFAVYYCQQHNKWITFGQGTRLEIK
~0.4 nM

Which EC50 (read off the curve) is reported for this binder? F(ab')2 fragment of antibody 3C3 (other, F(ab')2 version of the IgG2 antibody, lacking the Fc domain; also called 3C3 F(ab')2) VH: QVQLVESGGGVVQPGRSLRLSCAGSGFIFSRYGMYWVRQAPGKGLEWVAVIWYDGSYKYYADSVKGRFTISRDNSKNTLYLQMNSLRAEDTAVYYCARESPWYYFDYWGQGTLVTVSS VL: DIQMTQSPSSLSASVGDRVTITCRASQGISNYLAWYQQKPGKVPKLLIYAASTLQSGVPSRFSGSGSGTDFTLTISSLQPEDVATYYCQKYKSAPFTFGPGTKVDIK
~0.4 nM

Each recorded value in this set is attributed to patent US20250115663A1.
